# System: H3K4me2 in HCT116 cells
# procedure_text: Histone methylation H3K4me2 by western blot
# Type: cell-based, human
# assay_setup: HCT116, 0.1–10 μM, 24 hours, H3K4me2 antibody

{"compound": "C/C(=N\\NC(=O)c1cccc(S(=O)(=O)N2CCOCC2)c1)c1cc(OCCOCCOCCC(=O)NCCNc2cccc3c2C(=O)N(C2CCC(=O)NC2=O)C3=O)ccc1O (stereo not drawn)", "H3K4me2 abundance": "no increase in H3K4me2"}
{"compound": "C/C(=N\\NC(=O)c1cccc(S(=O)(=O)N2CCOCC2)c1)c1cc(Cl)ccc1O [SP2509, reference compound]", "H3K4me2 abundance": "no increase in H3K4me2"}
{"compound": "C/C(=N\\NC(=O)c1cccc(S(=O)(=O)N2CCOCC2)c1)c1cc(OCCOCCC(=O)N[C@H](C(=O)N2C[C@H](O)C[C@H]2C(=O)NCc2ccc(-c3scnc3C)cc2)C(C)(C)C)ccc1O", "H3K4me2 abundance": "no increase in H3K4me2"}

----------
# target_or_system: HDAC1-CoREST-LSD1 complex (Homo sapiens, UniProt O60341)
# Construct: full length native LSD1 (UniProt ID: O60341); made in house; host or cells: HEK 293F cells (co-transfection, pcDNA3 vectors)
# procedure_text: LSD1 HRP-coupled demethylase assay, TCP analogues
# Assay type: biochemical
# assay_setup: single concentration 50 μM, complex 50 nM, compared to no compound treatment control
# Source text: We then evaluated LSD1 inhibition in the LSD1-HDAC1-CoREST complex using the established horseradish peroxidase (HRP) assay.[8] 2. Supplementary Information: Biology 2.1. LSD-HDAC1-CoREST expression and purification […] The assay components are shown at their final concentrations per well in the table above. […] Plates were spun, then read on an PerkinElmer 2030 Explorer plate reader, with excitation of 530 nm and […] of 590 nm, with 7 readings taken over […]
property_label: LSD1 inhibition at 50 μM

{"molecule": "O=C(CCCCCCCCCCC(=O)NC1CC1c1ccccc1)NCCNc1cccc2c1C(=O)N(C1CCC(=O)NC1=O)C2=O (stereo not shown) [compound 41]", "target_or_system": "HDAC1-CoREST-LSD1 complex (Homo sapiens, UniProt O60341)", "result": "not LSD1 inhibitors"}
{"molecule": "O=C(CCCCC(=O)NC1CC1c1ccccc1)NCCNc1cccc2c1C(=O)N(C1CCC(=O)NC1=O)C2=O (stereo not shown) [compound 40]", "target_or_system": "HDAC1-CoREST-LSD1 complex (Homo sapiens, UniProt O60341)", "result": "not LSD1 inhibitors"}
{"molecule": "Cc1ncsc1-c1ccc(CNC(=O)[C@@H]2C[C@@H](O)CN2C(=O)[C@@H](NC(=O)CCCCCCCCCCC(=O)NC2CC2c2ccccc2)C(C)(C)C)cc1 (stereo partly shown) [compound 39]", "target_or_system": "HDAC1-CoREST-LSD1 complex (Homo sapiens, UniProt O60341)", "result": "not LSD1 inhibitors"}

----------
# target_or_system: LSD1-HDAC1-CoREST complex (Homo sapiens)
# Construct: full length native LSD1 (UniProt ID: O60341); made in house; host or cells: HEK 293F cells (co-transfection, pcDNA3 vectors)
# procedure_text: LSD1 HRP-coupled demethylase assay, SP2509/SP2577 analogues
# Type: biochemical
# assay_setup: LSD1 enzymatic activity, complex 50 nM, HRP assay; SP2509 value is mean of three sets; read-out: LSD1-HDAC1-CoREST IC50
property_label: pIC50
Give bare numbers, as −log10 of the molar value.

// below: answered compounds
{"compound": "COc1ccc(O)c(C(C)=NNC(=O)c2cccc(S(=O)(=O)N3CCOCC3)c2)c1", "pIC50": 7.84}
{"compound": "COc1ccc(O)c(C=NNC(=O)c2cccc(S(=O)(=O)N3CCOCC3)c2)c1", "pIC50": 7.89}
{"compound": "C/C(=N\\NC(=O)c1cccc(S(=O)(=O)N2CCN(CCOCCC(=O)OC(C)(C)C)CC2)c1)c1cc(Cl)ccc1O", "pIC50": 6.97}
{"compound": "C/C(=N\\NC(=O)c1cccc(S(=O)(=O)N2CCOCC2)c1)c1cc(Cl)ccc1O [SP2509, reference compound]", "pIC50": 7.27}
{"compound": "C/C(=N\\NC(=O)c1cccc(S(=O)(=O)N2CCOCC2)c1)c1cc(OCCOCCC(=O)OC(C)(C)C)ccc1O", "pIC50": 6.80}

Field: pIC50. Fill in for each record below.
1. COc1ccc(C(C)=NNC(=O)c2cccc(S(=O)(=O)N3CCOCC3)c2)c(O)c1
2. C/C(=N\NC(=O)c1cccc(S(=O)(=O)N2CCNCC2)c1)c1cc(Cl)ccc1O
3. C/C(=N\NC(=O)c1cccc(S(=O)(=O)N2CCOCC2)c1)c1ccc(OCCOCCC(=O)OC(C)(C)C)cc1O

1. 7.91
2. 7.69
3. 6.95

----------
Exercise: state measured IC50 for each of the molecules provided.
# target_or_system: LSD1-HDAC1-CoREST complex (Homo sapiens, UniProt O60341)
# Construct: full length native LSD1 (UniProt ID: O60341); made in house; host or cells: HEK 293F cells (co-transfection, pcDNA3 vectors)
# procedure_text: LSD1 HRP-coupled demethylase assay, SP2509/SP2577 analogues
# Assay type: biochemical
# assay_setup: per parallel set, each set with SP2509 as reference standard; read-out: IC50 from dose response curves (Figure S1)

# example entries with known answers
{"given_smiles": "COc1ccc(O)c(C(C)=NNC(=O)c2cccc(S(=O)(=O)N3CCOCC3)c2)c1", "property_label": "IC50", "result": "15 nM"}
{"given_smiles": "COc1ccc(O)c(C=NNC(=O)c2cccc(S(=O)(=O)N3CCOCC3)c2)c1", "property_label": "IC50", "result": "13 nM"}
{"given_smiles": "COc1ccc(C(C)=NNC(=O)c2cccc(S(=O)(=O)N3CCOCC3)c2)c(O)c1", "property_label": "IC50", "result": "12 nM"}

Returns the measured IC50 for the input molecule. Input: `C/C(=N\NC(=O)c1cccc(S(=O)(=O)N2CCNCC2)c1)c1cc(Cl)ccc1O` 21 nM

----------
# target_or_system: LSD1-HDAC1-CoREST complex (Homo sapiens)
# Construct: full length native LSD1 (UniProt ID: O60341); made in house; host or cells: HEK 293F cells (co-transfection, pcDNA3 vectors)
# procedure_text: LSD1 HRP-coupled demethylase assay, SP2509/SP2577 analogues
# Format: biochemical
# assay_setup: LSD1 enzymatic activity, complex 50 nM, HRP assay; read-out: LSD1-HDAC1-CoREST IC50
property_label: IC50 (nM)
One number for each entry, in nM.

IC50 lookup needed for C/C(=N\NC(=O)c1cccc(S(=O)(=O)N2CCN(C)CC2)c1)c1cc(Cl)ccc1O [SP2577] , thanks. 306

----------
# target_or_system: HDAC1-CoREST-LSD1 complex (Homo sapiens, UniProt O60341)
# Construct: full length native LSD1 (UniProt ID: O60341); made in house; host or cells: HEK 293F cells (co-transfection, pcDNA3 vectors)
# procedure_text: LSD1 HRP-coupled demethylase assay, TCP analogues
# Format: biochemical
# assay_setup: complex 50 nM; mean ± SD from three replicates
property_label: IC50
Note to self: number, then unit, no commentary.

{"molecule": "N[C@@H]1C[C@H]1c1ccc(C(=O)NCCc2ccc(OCCCCCCCCCCCC(=O)NCCNc3cccc4c3C(=O)N(C3CCC(=O)NC3=O)C4=O)cc2)cc1 (stereo partly drawn)", "property_label": "IC50", "result": "282 nM"}
{"molecule": "Cc1ncsc1-c1ccc(CNC(=O)[C@@H]2C[C@@H](O)CN2C(=O)[C@@H](NC(=O)COCCOCCOCCNC(=O)c2ccc([C@@H]3C[C@H]3N)cc2)C(C)(C)C)cc1", "property_label": "IC50", "result": "63 nM"}

Notebook entry, HDAC1-CoREST-LSD1 complex (Homo sapiens, UniProt O60341) assay: IC50 of `COC(=O)c1ccc([C@@H]2C[C@H]2N)cc1` = ? 94 nM
